Entries and their measured pIC50 follow.
# Study Target: truncated LRRK2 (Homo sapiens)
# Construct: a truncated LRRK2 enzyme (GST tagged LRRK2 of amino acids 970-2527); GST; purchased Invitrogen Corporation
# Sequence (Q5S007 970-2527): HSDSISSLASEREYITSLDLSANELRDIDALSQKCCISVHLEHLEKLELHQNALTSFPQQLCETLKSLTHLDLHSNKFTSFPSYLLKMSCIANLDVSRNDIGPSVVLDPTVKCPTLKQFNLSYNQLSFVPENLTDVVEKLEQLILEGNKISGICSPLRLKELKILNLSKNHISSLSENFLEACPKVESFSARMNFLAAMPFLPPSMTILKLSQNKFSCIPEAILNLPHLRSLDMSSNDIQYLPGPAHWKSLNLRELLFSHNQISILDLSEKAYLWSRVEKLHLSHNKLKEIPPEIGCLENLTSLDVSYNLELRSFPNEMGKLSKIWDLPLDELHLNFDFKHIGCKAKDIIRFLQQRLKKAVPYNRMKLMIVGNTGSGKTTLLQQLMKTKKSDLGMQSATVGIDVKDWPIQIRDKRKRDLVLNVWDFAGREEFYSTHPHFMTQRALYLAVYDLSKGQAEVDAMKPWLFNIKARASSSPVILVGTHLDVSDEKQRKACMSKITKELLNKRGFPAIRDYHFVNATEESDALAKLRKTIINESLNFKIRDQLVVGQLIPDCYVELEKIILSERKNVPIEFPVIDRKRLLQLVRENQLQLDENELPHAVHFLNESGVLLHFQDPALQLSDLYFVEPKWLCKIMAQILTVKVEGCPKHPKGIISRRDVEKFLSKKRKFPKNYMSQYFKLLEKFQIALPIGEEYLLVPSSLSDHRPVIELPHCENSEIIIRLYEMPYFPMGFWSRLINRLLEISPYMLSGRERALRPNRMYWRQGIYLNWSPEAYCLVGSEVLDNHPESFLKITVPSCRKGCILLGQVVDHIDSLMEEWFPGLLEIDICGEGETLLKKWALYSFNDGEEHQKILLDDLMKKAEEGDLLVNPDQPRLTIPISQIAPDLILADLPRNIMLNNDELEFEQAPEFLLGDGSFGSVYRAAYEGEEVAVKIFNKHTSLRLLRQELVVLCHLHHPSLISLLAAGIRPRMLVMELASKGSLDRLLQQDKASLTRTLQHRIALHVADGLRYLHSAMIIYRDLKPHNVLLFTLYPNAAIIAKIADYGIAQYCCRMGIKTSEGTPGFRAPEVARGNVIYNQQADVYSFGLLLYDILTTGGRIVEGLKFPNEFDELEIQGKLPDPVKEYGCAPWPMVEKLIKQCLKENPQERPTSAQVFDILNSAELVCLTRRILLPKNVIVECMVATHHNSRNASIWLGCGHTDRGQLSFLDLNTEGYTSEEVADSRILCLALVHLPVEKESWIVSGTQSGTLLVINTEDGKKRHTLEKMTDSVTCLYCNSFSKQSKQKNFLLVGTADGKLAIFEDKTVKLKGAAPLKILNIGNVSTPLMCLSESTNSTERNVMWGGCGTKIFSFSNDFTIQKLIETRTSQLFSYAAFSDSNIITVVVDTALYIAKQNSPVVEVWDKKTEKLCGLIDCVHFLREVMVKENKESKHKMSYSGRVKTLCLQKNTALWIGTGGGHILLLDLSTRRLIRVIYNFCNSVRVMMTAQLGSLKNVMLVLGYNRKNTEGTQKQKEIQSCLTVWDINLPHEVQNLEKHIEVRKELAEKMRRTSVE
# Test Details: radiometric protein kinase assay (33PanQinase Activity Assay, Protocol 2), truncated LRRK2
# Type: biochemical
# Details: Protocol 2; ATP 0.3 μM, substrate GSK3(14-27); read-out: IC50 for truncated LRRK2
pIC50: −log10 of the molar value.

O=C(C1CC1)N1CCOc2cccc(c2)-c2cnn3ccc(nc23)N(CCO)CC1 [Compound 63] ... 6.00 to 7.00
NC(=O)N1CCNc2ccn3ncc(c3n2)-c2cccc(c2)OCC1 [Example 38] ... > 7.00
O=C1CNc2ccn3ncc(c3n2)-c2cccc(c2)OCCCN1 [Compound 57] ... < 6.00
CN(C)CCC(=O)N1CCNc2ccn3ncc(c3n2)-c2cccc(c2)OCC1 [Example 41] ... > 7.00
CN1CCCOc2cccc(c2)-c2cnn3ccc(nc23)NCCCC1=O [Compound 65] ... < 6.00
CNCC(=O)N1CCNc2ccn3ncc(c3n2)-c2cccc(c2)OCC1 [Example 37] ... > 7.00

QUERY: Give recorded pIC50. CS(=O)(=O)N1CCNc2ccn3ncc(c3n2)-c2cccc(c2)OCC1 [Example 14]
RESULT: 6.00 to 7.00

QUERY: Give recorded pIC50. C[C@@H]1NCc2cccc(c2)-c2cnn3ccc(nc23)NCCNC1=O [Compound 64]
RESULT: < 6.00

QUERY: Give recorded pIC50. CC(C)N1CCNc2ccn3ncc(c3n2)-c2cccc(c2)OCC1=O [Example 44]
RESULT: < 6.00

QUERY: Give recorded pIC50. CN1CCNc2ccn3ncc(c3n2)-c2cccc(c2)OCCCS1(=O)=O [Example 47]
RESULT: 6.00 to 7.00

QUERY: Give recorded pIC50. NC(=O)c1cc2cc(c1)-c1cnn3ccc(nc13)NCCN(C(=O)C1CC1)CCO2 [Compound 69]
RESULT: < 6.00
